experiment: small molecules captured by biotinylated probe aFGF10 – biochemical, small-molecule microarray, fluorescence 635/667, stem cell growth factor project, primary screen (AID 1071); settings: higher = more signal;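 also: score merges 667 nm spot intensity and signal to noise from triplicate slides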
Value type: composite z-score

Reference set, count: 3
Compound: CN(C)CCCC[C@@H]1NC(=O)[C@H]2C[C@@H](C(=O)O)[C@@H](c3ccc(O)cc3)N2C1=O
Reading: 1.04

Compound: COc1ccc(C(O)C2C=CC3C(=O)N(c4ccccc4)C(=O)C3N2Nc2ccc(C#N)cc2)cc1OCc1ccccc1 (centres undefined)
Reading: 0.472

Compound: CO[C@H]1O[C@H](CO)[C@@H](OC(=O)Nc2ccc3c(c2)OCO3)[C@H](OC(=O)Nc2ccccc2-c2ccccc2)[C@H]1OC(=O)Nc1ccccc1-c1ccccc1
Reading: 1.26

Let us move to another entry and its composite z-score.
Q: Suppose we examine the compound NC(=O)N1C(=O)C2C(C1=O)C1C=C(CCCO)C2C(c2ccc(CN3CCCC3)cc2)N1Cc1cc2c(cc1Br)OCO2 (centres undefined) ; what composite z-score value has been reported?
A: -0.0906
